B1: KAT8 regulatory NSL complex subunit 2, residues 28 to 91; numbered along this chain, Q9H9L4 (parent)
chain: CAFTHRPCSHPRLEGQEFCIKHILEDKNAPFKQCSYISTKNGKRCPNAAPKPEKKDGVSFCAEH

Variants of: B1
Assay: abundance fitness (aPCA) (normalised: wild type 0, dead -1); higher = more abundant; growth selection in yeast, the domain comes from the species named
Conditions: Homo sapiens
Heads up, the class ranges for abundance fitness are lower level: < -0.2; middle level: ≥ -0.2 and < -0.08; upper level: ≥ -0.08

Classify this variant: T4L lower level

Then this variant: H22S lower level

Then this variant: G42D middle level

Reference source for all entries: the Human Domainome abundance scans (Beltran et al. 2025)
